Endpoint summary: IC50, system: Tyrosine-protein kinase receptor UFO (Homo sapiens), multiple sources combined.

[
  {
    "compound": "CNc1ncc2c(n1)N1CCN=C1C(c1cc(NC(=O)C3(C(=O)Nc4ccc(F)cc4)CC3)ccc1F)=C2",
    "IC50": "> 10000 nM"
  },
  {
    "compound": "Cc1cn(C)nc1-n1c(=O)c(C(=O)Nc2ccc(-c3cc(C4CCN(C(=O)C(C)C)CC4)n4ncnc(N)c34)cc2)cn(C(C)C)c1=O",
    "IC50": "< 5 nM"
  },
  {
    "compound": "C[C@H](Nc1ncc2c(-c3ccc(CN4CCOCC4)cc3)cc([C@H]3CC[C@H](O)CC3)n2n1)[C@@H]1CCCO1",
    "IC50": "1000 to 10000 nM"
  },
  {
    "compound": "CCCC(C)Nc1ncc2c(=O)n(C3CCN(CCOC)CC3)cc([C@H]3CC[C@H](O)CC3)c2n1 (some centres unmarked)",
    "IC50": "100 to 1000 nM"
  },
  {
    "compound": "CCc1ccc2c(c1)c(=O)c(C(=O)Nc1ccc(Oc3ncnc4cc(OC)c(OC)cc34)c(F)c1)c(C)n2C",
    "IC50": "4 nM"
  },
  {
    "compound": "COc1cc2nccc(Oc3ccc(NC(=O)c4cn(CC5CCS(=O)(=O)CC5)cc(-c5ccc(C)cc5)c4=O)nc3)c2cc1OC",
    "IC50": "20 nM"
  },
  {
    "compound": "CC1(C)CC(Nc2ncc3c(OC4CCOCC4)ncc([C@H]4CC[C@H](O)CC4)c3n2)C1",
    "IC50": "100 to 1000 nM"
  },
  {
    "compound": "COC[C@H](C)Nc1ncc2c(-c3ccc(C)cn3)cc([C@H]3CC[C@H](O)CC3)n2n1",
    "IC50": "100 to 1000 nM"
  },
  {
    "compound": "CC1CC(Nc2ncc3c(OC4CCNCC4)ncc([C@H]4CC[C@H](O)CC4)c3n2)C1 (some centres unmarked)",
    "IC50": "≤ 100 nM"
  },
  {
    "compound": "C[C@@H](COC(F)F)Nc1ncc2c(-c3cnn(CCS(C)(=O)=O)c3)cc([C@H]3CC[C@H](O)CC3)n2n1",
    "IC50": "≤ 100 nM"
  },
  {
    "compound": "COC[C@H](C)Nc1ncc2c(-c3ccnc(C)c3)cc([C@H]3CC[C@@](C)(O)CC3)n2n1",
    "IC50": "≤ 100 nM"
  },
  {
    "compound": "CC(C)C(=O)N1CCC(c2cc(-c3ccc(NC(=O)c4c5n(n(-c6ccccn6)c4=O)CCOC5)cc3F)c3c(N)ncnn23)CC1",
    "IC50": "5 to 50 nM"
  },
  {
    "compound": "COC[C@H](C)Nc1ncc2c(-c3cnn(C(C)(C)C(=O)N4CCOCC4)c3)cc([C@H]3CC[C@@](C)(O)CC3)n2n1",
    "IC50": "≤ 100 nM"
  },
  {
    "compound": "Nc1ncc(-c2cnn(C3CCNCC3)c2)cc1-c1noc(-c2cc(Cl)ccc2Cl)n1",
    "IC50": "< 500 nM"
  }
]
